Biological target: T1, EphA2 extracellular domain fused to the Fc portion of an antibody (EphA2-Fc)
T1 construct: extracellular domain; Immobilized on the ELISA wells; also called immobilized EphA2
T1 sequence (P29317 whole entry, the tested form may be a part): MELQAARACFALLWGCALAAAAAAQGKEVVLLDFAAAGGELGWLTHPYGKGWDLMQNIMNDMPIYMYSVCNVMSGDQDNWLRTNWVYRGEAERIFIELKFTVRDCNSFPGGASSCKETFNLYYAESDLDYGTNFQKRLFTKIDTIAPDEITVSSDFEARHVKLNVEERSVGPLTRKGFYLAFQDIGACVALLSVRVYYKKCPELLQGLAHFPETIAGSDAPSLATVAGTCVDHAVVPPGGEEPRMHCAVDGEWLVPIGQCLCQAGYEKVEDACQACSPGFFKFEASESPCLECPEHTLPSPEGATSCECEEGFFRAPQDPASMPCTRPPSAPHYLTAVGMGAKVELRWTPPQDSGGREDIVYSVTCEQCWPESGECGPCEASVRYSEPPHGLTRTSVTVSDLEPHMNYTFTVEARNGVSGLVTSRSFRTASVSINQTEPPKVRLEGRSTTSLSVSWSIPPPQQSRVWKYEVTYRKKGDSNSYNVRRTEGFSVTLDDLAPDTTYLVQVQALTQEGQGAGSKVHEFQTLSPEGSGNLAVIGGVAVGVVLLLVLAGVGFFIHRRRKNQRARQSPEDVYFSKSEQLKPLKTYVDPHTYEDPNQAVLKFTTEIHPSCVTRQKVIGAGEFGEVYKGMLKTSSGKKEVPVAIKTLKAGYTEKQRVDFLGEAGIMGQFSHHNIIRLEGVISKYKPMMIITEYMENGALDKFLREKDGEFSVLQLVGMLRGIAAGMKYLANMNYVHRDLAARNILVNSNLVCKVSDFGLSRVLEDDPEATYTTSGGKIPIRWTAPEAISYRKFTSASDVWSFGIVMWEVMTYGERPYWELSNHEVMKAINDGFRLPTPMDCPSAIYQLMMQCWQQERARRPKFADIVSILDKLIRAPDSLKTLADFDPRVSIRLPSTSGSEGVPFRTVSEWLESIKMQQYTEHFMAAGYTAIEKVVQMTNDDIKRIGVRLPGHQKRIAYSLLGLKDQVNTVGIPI
Experiment: ELISA, inhibition of ephrinA5-AP binding to immobilized EphA2-Fc
Where no end group is shown, it is not given here. [ ]: non-standard residue; d: D form. βAla = NCCC(=O)O
Field: pIC50. Provide a value for each of the binders that follow.
One number for each entry, as −log10 of the molar value.

Worked examples, 3 binders total:
| binder | assay-readout | quantitative-readout |
| --- | --- | --- |
| CGAWLAYPDSVPYRPK (also: N-terminally disulfide-linked homodimer, disulfide at 1, other end not in the chain, also called dimer (5); dimeric peptide (5)) [CGA-WLA-YRPK dimer (N-ter)] | pIC50 | 9.19 |
| CGAWLAYPDSVPYR (also: homodimer: N-terminal Cys of two chains joined by disulfide, N-terminally disulfide-linked homodimer made from monomer (15*); also called dimer (4)) [CGA-WLA-YR dimer (N-ter)] | pIC50 | 8.10 |
| [βAla]WLAYPDSVPYGSGC (also: homodimer, disulfide at 15, other end not in the chain, C-terminally disulfide-linked homodimer made from monomer (9*); also called dimer (1); dimeric peptide (1)) [βA-WLA-YGSGC dimer (C-ter)] | pIC50 | 7.15 |

Next binder, pIC50 to be filled in.
Give the measured pIC50 of [βAla]WLAYPDSVPYRPKC (also: homodimer, disulfide at 15, other end not in the chain, C-terminally disulfide-linked homodimer made from monomer (19*); also called dimer (2); dimeric peptide (2)) [βA-WLA-YRPKC dimer (C-ter)] .
9.30

Data provenance is patent US20230391826A1.
